# study_target: schistosome legumain SmAE (Schistosoma mansoni asparaginyl endopeptidase) (Schistosoma mansoni, UniProt P09841, N192C, form not given)
# Sequence (P09841 whole entry N192C, form open): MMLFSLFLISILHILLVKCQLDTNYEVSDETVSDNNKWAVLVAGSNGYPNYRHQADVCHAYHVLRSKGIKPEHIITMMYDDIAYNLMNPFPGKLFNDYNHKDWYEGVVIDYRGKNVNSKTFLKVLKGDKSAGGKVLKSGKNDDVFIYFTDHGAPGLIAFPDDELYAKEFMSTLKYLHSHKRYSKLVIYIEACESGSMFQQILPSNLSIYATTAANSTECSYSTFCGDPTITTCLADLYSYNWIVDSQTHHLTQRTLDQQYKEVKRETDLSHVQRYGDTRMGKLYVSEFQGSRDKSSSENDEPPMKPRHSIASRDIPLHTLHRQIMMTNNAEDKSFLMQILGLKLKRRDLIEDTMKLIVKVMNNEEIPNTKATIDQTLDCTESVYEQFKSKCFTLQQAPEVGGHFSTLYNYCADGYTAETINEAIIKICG
# test: Schistosome legumain (SmAE) IC50 assay
# measurement_context: read-out: Schistosome Legumain IC50; preincubated 20 minutes at room temperature, substrate Cbz-Ala-Ala-Asn-AMC; NI = no inhibition
experimental_endpoint: IC50

Requested read-out: IC50. Entry: CC(NC(=O)OCc1ccccc1)C(=O)NC(C)C(=O)NN(CC(N)=O)C(=O)C1OC1C(=O)NCc1ccccc1 (stereo not drawn) [12d]
> 2000 nM

Which value of IC50 has been reported for CC(NC(=O)OCc1ccccc1)C(=O)NC(C)C(=O)NN(CC(N)=O)C(=O)C1OC1C(=O)NCCc1ccccc1 (stereo not drawn) [12e] in the records?
> 2000 nM

Which IC50 is listed for CC(NC(=O)[C@@H]1O[C@H]1C(=O)N(CC(N)=O)NC(=O)[C@H](C)NC(=O)[C@H](C)NC(=O)OCc1ccccc1)C(=O)NCc1ccccc1 (stereo partly drawn) [12f] ?
> 2000 nM

###

# study_target: caspase-6 (Homo sapiens, UniProt P55212)
# Construct: made in house; host or cells: E. coli
# Sequence (P55212 24-179 limits assumed): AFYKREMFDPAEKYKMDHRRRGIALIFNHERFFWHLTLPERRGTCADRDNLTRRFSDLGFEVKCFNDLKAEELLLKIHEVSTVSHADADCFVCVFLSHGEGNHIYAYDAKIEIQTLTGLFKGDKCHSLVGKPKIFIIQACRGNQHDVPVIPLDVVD
# Sequence (P55212 194-293 limits assumed): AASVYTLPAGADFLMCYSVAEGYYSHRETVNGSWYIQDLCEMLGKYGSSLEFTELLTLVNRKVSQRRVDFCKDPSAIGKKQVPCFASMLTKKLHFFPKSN
# test: Caspase-6 progress curve assay
# Type: biochemical
# measurement_context: Table V, substrate Z-DEVD-AFC
experimental_endpoint: k2 caspase-6 (M⁻¹ s⁻¹)
Record the value in M⁻¹ s⁻¹, omitting the unit from your answer.

Would you kindly share the measured k2 caspase-6 for CC(C)C[C@H](NC(=O)OCc1ccccc1)C(=O)N[C@@H](CCC(=O)O)C(=O)N[C@H](C(=O)NN(CC(=O)O)C(=O)[C@H]1O[C@@H]1C(=O)N(C)Cc1ccccc1)[C@@H](C)O [11-16] ?
9680

Using the record for CC(C)C[C@H](NC(=O)OCc1ccccc1)C(=O)N[C@@H](CCC(=O)O)C(=O)N[C@H](C(=O)NN(CC(=O)O)C(=O)[C@H]1O[C@@H]1C(=O)N(Cc1ccccc1)Cc1ccccc1)[C@@H](C)O [11-4] , report its k2 caspase-6.
13840

# input compound: CC[C@H](C)[C@H](NC(=O)OCc1ccccc1)C(=O)N[C@@H](CCC(=O)O)C(=O)N[C@H](C(=O)NN(CC(=O)O)C(=O)[C@H]1O[C@@H]1C(=O)N(C)Cc1ccccc1)[C@@H](C)O [11-18] ; wanted: its k2 caspase-6
47730

Given the entry CC(C)[C@H](NC(=O)CCc1ccccc1)C(=O)N[C@@H](C)C(=O)NN(CC(=O)O)C(=O)[C@H]1O[C@@H]1C(=O)N(C)Cc1ccccc1 [11-17] , report its measured k2 caspase-6.
136

Look up k2 caspase-6: CC[C@H](C)[C@H](NC(=O)OCc1ccccc1)C(=O)N[C@@H](CCC(=O)O)C(=O)N[C@H](C(=O)NN(CC(=O)O)C(=O)[C@H]1O[C@@H]1C(=O)N(Cc1ccccc1)Cc1ccccc1)[C@@H](C)O [11-11]
32000

// query k2 caspase-6 value for entry CC(C)[C@H](NC(=O)CCc1ccccc1)C(=O)N[C@@H](C)C(=O)NN(CC(=O)O)C(=O)[C@H]1O[C@@H]1C(=O)N(Cc1ccccc1)Cc1ccccc1 [10-127]
145

Suppose we examine the compound CCCCN(CCCC)C(=O)[C@H]1O[C@@H]1C(=O)N(CC(=O)O)NC(=O)[C@H](C)NC(=O)[C@@H](NC(=O)CCc1ccccc1)C(C)C [10-129] ; what k2 caspase-6 value has been reported?
53

###

Give measured k2 caspase-1 for each item. Keep answers brief.
# study_target: caspase-1 (Homo sapiens, UniProt P29466, D381E)
# Construct: His tag (N); made in house; host or cells: E. coli
# Sequence (P29466 120-297 limits assumed): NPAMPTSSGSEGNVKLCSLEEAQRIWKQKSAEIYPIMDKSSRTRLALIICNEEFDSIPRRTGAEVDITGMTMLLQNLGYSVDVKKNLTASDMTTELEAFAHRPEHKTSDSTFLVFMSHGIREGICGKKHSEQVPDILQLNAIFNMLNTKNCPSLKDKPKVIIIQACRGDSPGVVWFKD
# Sequence (P29466 317-404 D381E limits assumed): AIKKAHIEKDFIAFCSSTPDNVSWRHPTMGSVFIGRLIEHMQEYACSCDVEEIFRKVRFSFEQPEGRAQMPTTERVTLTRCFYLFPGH
# test: Caspase-1 progress curve assay
# Assay type: biochemical
# measurement_context: D381E variant, substrate Ac-YVAD-AMC, 30° C.
Param answer (str): number followed by unit.

Look up k2 caspase-1 for this molecule: CC(C)[C@H](NC(=O)CCc1ccccc1)C(=O)N[C@@H](C)C(=O)NN(CC(=O)O)C(=O)[C@H]1O[C@@H]1C(=O)NCc1ccccc1 [23g (S,S)]
65900 ± 9153 M⁻¹ s⁻¹

// k2 caspase-1 lookup, key: CCCCN(CCCC)C(=O)[C@H]1O[C@@H]1C(=O)N(CC(=O)O)NC(=O)[C@H](C)NC(=O)[C@@H](NC(=O)CCc1ccccc1)C(C)C
26150 ± 5460 M⁻¹ s⁻¹

I'd like to know its k2 caspase-1. The molecule in question is CC(C)[C@H](NC(=O)CCc1ccccc1)C(=O)N[C@@H](C)C(=O)NN(CC(=O)O)C(=O)[C@@H]1O[C@H]1C(=O)OCc1ccccc1 (relative stereo) [23d (trans)]
18070 ± 2625 M⁻¹ s⁻¹

Field request: k2 caspase-1 | item: CC(C)[C@H](NC(=O)CCc1ccccc1)C(=O)N[C@@H](C)C(=O)NN(CC(=O)O)C(=O)[C@@H]1O[C@H]1C(=O)NC(Cc1ccccc1)C(N)=O (stereo partly drawn) [23l (R,R)]
330 M⁻¹ s⁻¹

# input molecule: CC(C)[C@H](NC(=O)CCc1ccccc1)C(=O)N[C@@H](C)C(=O)NN(CC(=O)O)C(=O)[C@H]1O[C@@H]1C(=O)N(Cc1ccccc1)Cc1ccccc1 ; wanted: its k2 caspase-1
101140 ± 9547 M⁻¹ s⁻¹

Quick one: k2 caspase-1 for CC(C)[C@H](NC(=O)CCc1ccccc1)C(=O)N[C@@H](C)C(=O)NN(CC(=O)O)C(=O)[C@H]1O[C@@H]1C(=O)NCC(O)c1ccccc1 (stereo partly drawn) [23i (S,S)] ?
12260 ± 19 M⁻¹ s⁻¹

Report k2 caspase-1 for CC(NC(=O)C(NC(=O)CCc1ccccc1)C(C)C)C(=O)NN(CC(=O)O)C(=O)[C@@H]1O[C@H]1C(=O)NCc1ccccc1 (stereo partly drawn) [23g (R,R)] please.
1630 ± 522 M⁻¹ s⁻¹
